Taken from patent US7737155B2.

target.entity: recombinant human nicotinic acid receptor (NAR) (Homo sapiens)
Sequence (Q8TDS4 whole entry): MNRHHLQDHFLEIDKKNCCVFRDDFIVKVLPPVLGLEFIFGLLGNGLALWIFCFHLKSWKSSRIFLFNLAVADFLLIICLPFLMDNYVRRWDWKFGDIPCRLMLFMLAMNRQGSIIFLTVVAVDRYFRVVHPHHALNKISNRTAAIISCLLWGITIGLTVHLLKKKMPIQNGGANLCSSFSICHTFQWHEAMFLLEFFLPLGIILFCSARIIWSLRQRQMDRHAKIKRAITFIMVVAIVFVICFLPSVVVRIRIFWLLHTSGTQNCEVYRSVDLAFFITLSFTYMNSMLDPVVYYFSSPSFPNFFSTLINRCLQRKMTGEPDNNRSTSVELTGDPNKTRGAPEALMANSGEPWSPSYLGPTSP
experiment.notes: Nicotinic Acid Receptor Assay: inhibition of forskolin-stimulated cAMP accumulation in CHO cells (MesoScale Discovery cAMP kit)
Assay type: cell-based
protocol.conditions: NA EC50 camp (nM), CHO cells expressing recombinant human NAR; forskolin-stimulated cAMP
metric: EC50

Please review the following examples before continuing.
CCC#CCOc1nc2oc(=O)cc(Cc3ccccc3)c2c(=O)[nH]1 [Compound 615]; 100 to 1000 nM
CCc1cc(=O)oc2nc(OCc3cccc(-c4cccc(C#N)c4)c3)[nH]c(=O)c12 [Compound 567]; 100 to 1000 nM
CCCC#CCOc1nc2oc(=O)cc(CC)c2c(=O)[nH]1 [Compound 557]; 0.001 to 100 nM
CCc1cc(=O)oc2nc(OCC#CCO)[nH]c(=O)c12 [Compound 631]; 100 to 1000 nM

**Q:** I am curious: what EC50 value has been reported for CCc1cc(=O)oc2nc(OCC#CCCO)[nH]c(=O)c12 [Compound 658] ?
**A:** 100 to 1000 nM

**Q:** I am curious: what EC50 value has been reported for CCOCCOc1nc2oc(=O)cc(CC)c2c(=O)[nH]1 [Compound 580] ?
**A:** > 1000 nM

**Q:** I am curious: what EC50 value has been reported for CCc1cc(=O)oc2nc(OCCOC)[nH]c(=O)c12 [Compound 524] ?
**A:** 100 to 1000 nM
